test system: ERRα (GAL-ERRa); assay: MH100x4 luciferase reporter with GAL-ERRa; assay type: cell-based; conditions: Table 3; dose 2.5 (unit not given); None 1
Reported Fold Activation values for the following molecules.
Answer as a number with no unit attached.

INSERT INTO results (molecule, outcomemeasure, numericvalue) VALUES
  ('CC(C)/C(=C(\c1ccc(O)cc1)c1ccc(OCN(C)C)cc1)c1ccccc1', 'Fold Activation', 0.78),
  ('CC(C)C(=C(c1ccc(O)cc1)c1ccc(O)cc1)c1ccccc1', 'Fold Activation', 1.01),
  ('CCC(=C(c1ccc(OC2CCCCO2)cc1)c1ccc(OC2CCCCO2)cc1)c1ccccc1 (stereo not drawn)', 'Fold Activation', 1.15),
  ('CC/C(=C(/c1ccc(OCCN(C)C)cc1)c1ccc(OC(C)=O)cc1)c1ccccc1', 'Fold Activation', 0.99);

Input line: Returns the measured Fold Activation for the input molecule. Input: Oc1ccc(C(=C(CCCCl)c2ccccc2)c2ccc(O)cc2)cc1
Output line: 1.06

Input line: Can you check Oc1ccc(C(=C(CCCl)c2ccccc2)c2ccc(O)cc2)cc1 next?
Output line: 1.03

----------
tested on: ERRγ (GAL-ERRg); test: MH100x4 luciferase reporter with GAL-ERRg; assay type: cell-based; set-up: unit not given here; conditions: Table 2; dose 5 (unit not given); None 1.25
Reporter Activity below 0.9 gives label 0; Reporter Activity at or above it gives label 1.

Below, 3 compounds whose answers are already recorded.
INSERT INTO assay_data (compound, class) VALUES
  ('C=CCOc1ccc(C(CC)=C(CC)c2ccc(O)c(CC=C)c2)cc1 [DY21]', 'label 0'),
  ('CCCCCCCCCCCCOc1ccc(C(CC)=C(CC)c2ccc(OCCCCCCCCCCCC)cc2)cc1 [DY15]', 'label 1'),
  ('CCCCCCCCCCCCOc1ccc(/C(CC)=C(\CC)c2ccc(O)cc2)cc1 [DY14]', 'label 1');

Input line: Is it the case that C=CCc1cc(C(CC)=C(CC)c2ccc(O)c(CC=C)c2)ccc1O [DY22] has Reporter Activity reaching or exceeding 0.9?
Output line: label 0

----------
molecular target: ERRβ (GAL-L-ERRb) (Homo sapiens); construct: expressed in transfected cells; experiment: MH100x4 luciferase reporter with GAL-L-ERRb; format: cell-based; settings: Table 3; dose 2.5 (unit not given); None 1
Exam item: assign 1 to entries whose Fold Activation is below 0.7 and -1 to entries at or above 0.7. Note that a value of exactly 0.7 receives -1.

INSERT INTO measurements (compound, class) VALUES
  ('CC/C(=C(/c1ccc(OCCN(C)C)cc1)c1ccc(OC(C)=O)cc1)c1ccccc1', 1);

Input line: Item CCC(=C(c1ccc(OC2CCCCO2)cc1)c1ccc(OC2CCCCO2)cc1)c1ccccc1 (stereo not drawn) : Fold Activation beneath 0.7, strictly?
Output line: -1

Input line: Now try CC(C)/C(=C(\c1ccc(O)cc1)c1ccc(OCN(C)C)cc1)c1ccccc1 .
Output line: 1

Input line: Please give the result for CC(C)C(=C(c1ccc(O)cc1)c1ccc(O)cc1)c1ccccc1 too.
Output line: 1

Input line: Now the compound Oc1ccc(C(=C(CCCl)c2ccccc2)c2ccc(O)cc2)cc1
Output line: -1

Input line: Queued: Oc1ccc(C(=C(CCCCl)c2ccccc2)c2ccc(O)cc2)cc1
Output line: -1

----------
system: MH100x4; test: MH100x4 luciferase reporter without receptor; assay type: cell-based; settings: Table 2; dose 5 (unit not given); None 1.00
outcomeMeasure: Fold Activation

Illustrative cases are given below, each with its answer.
INSERT INTO assay_data (compound, outcomemeasure, result) VALUES
  ('CCCCCCCCCCCCOc1ccc(C(CC)=C(CC)c2ccc(OCCCCCCCCCCCC)cc2)cc1 [DY15]', 'Fold Activation', 0.82),
  ('C=CCOc1ccc(C(CC)=C(CC)c2ccc(O)c(CC=C)c2)cc1 [DY21]', 'Fold Activation', 0.63);

Input line: // query Fold Activation value for entry CCC(=C(CC)c1ccc(Oc2cccc(C=O)c2)cc1)c1ccc(O)cc1 [DY19]
Output line: 0.76

Input line: And what about the compound C=CCOc1ccc(C(CC)=C(CC)c2ccc(OCC=C)cc2)cc1 [DY20] ?
Output line: 0.71

Input line: Please give the result for CCC(=C(CC)c1ccc(O)c(C(C)(C)C)c1)c1ccc(O)cc1 [DY18] too.
Output line: 0.53

Input line: Okay, and CCC(=C(CC)c1ccc(O)c(C(C)C)c1)c1ccc(O)cc1 [DY17] ?
Output line: 0.80

Input line: Now give it for C=CCc1cc(C(CC)=C(CC)c2ccc(O)c(CC=C)c2)ccc1O [DY22] too.
Output line: 0.57

Input line: What about CCC(=C(CC)c1ccc(O)c(C=C(C)C)c1)c1ccc(O)cc1 [DY16] ?
Output line: 0.71

----------
// values below are reported Reporter Activity
biological target: ERRβ (GAL-L-ERRb) (Homo sapiens, UniProt O95718); construct: expressed in transfected cells; assay: MH100x4 luciferase reporter with GAL-L-ERRb; format: cell-based; parameters: unit not given here; conditions: Table 2; dose 5 (unit not given); None 1.44
Sequence (O95718 208-432 limits assumed, species assumed): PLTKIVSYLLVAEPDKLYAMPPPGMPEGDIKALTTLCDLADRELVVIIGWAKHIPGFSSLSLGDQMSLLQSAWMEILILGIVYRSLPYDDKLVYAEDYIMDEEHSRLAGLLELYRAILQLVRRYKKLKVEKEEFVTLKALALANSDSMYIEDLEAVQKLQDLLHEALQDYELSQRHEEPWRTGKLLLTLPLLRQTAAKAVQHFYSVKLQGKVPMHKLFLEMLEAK
# answer = number (no unit)

Look over these answered cases.
INSERT INTO measurements (chemsmiles, outcomemeasure, numericvalue) VALUES
  ('CCCCCCCCCCCCOc1ccc(/C(CC)=C(\CC)c2ccc(O)cc2)cc1', 'Reporter Activity', 1.38),
  ('C=CCOc1ccc(C(CC)=C(CC)c2ccc(O)c(CC=C)c2)cc1', 'Reporter Activity', 0.65),
  ('CCC(=C(CC)c1ccc(O)c(C(C)(C)C)c1)c1ccc(O)cc1', 'Reporter Activity', 0.6),
  ('CCC(=C(CC)c1ccc(Oc2cccc(C=O)c2)cc1)c1ccc(O)cc1', 'Reporter Activity', 0.84);

Moving on to the next compound.
Input line: Consider the compound shown here: C=CCc1cc(C(CC)=C(CC)c2ccc(O)c(CC=C)c2)ccc1O What is its recorded Reporter Activity?
Output line: 0.64

----------
system: ERRγ (GAL-ERRg); assay: MH100x4 luciferase reporter with GAL-ERRg; assay type: cell-based; design: unit not given here; conditions: Table 2; dose 5 (unit not given); None 1.25
outcomeMeasure: Reporter Activity

Input line: For CCC(=C(CC)c1ccc(O)c(C=C(C)C)c1)c1ccc(O)cc1 , what is its reported Reporter Activity?
Output line: 1.14

Input line: Same question, C=CCOc1ccc(C(CC)=C(CC)c2ccc(OCC=C)cc2)cc1 this time
Output line: 1.01

Input line: Follow-up item: CCC(=C(CC)c1ccc(O)c(C(C)(C)C)c1)c1ccc(O)cc1
Output line: 0.73

Input line: What about CCC(=C(CC)c1ccc(Oc2cccc(C=O)c2)cc1)c1ccc(O)cc1 ?
Output line: 1.02

----------
test system: ERRα (GAL-ERRa); test: MH100x4 luciferase reporter with GAL-ERRa; type: cell-based; conditions: Table 2; dose 5 (unit not given); None 1.00
Could you please mark Met for values of Fold Activation below 0.6 and Not met for values at or above it?

INSERT INTO assay_data (chemsmiles, class) VALUES
  ('C=CCOc1ccc(C(CC)=C(CC)c2ccc(OCC=C)cc2)cc1', 'Not met'),
  ('CCCCCCCCCCCCOc1ccc(/C(CC)=C(\CC)c2ccc(O)cc2)cc1', 'Not met'),
  ('C=CCc1cc(C(CC)=C(CC)c2ccc(O)c(CC=C)c2)ccc1O', 'Met');

Input line: Bench note: check whether CCCCCCCCCCCCOc1ccc(C(CC)=C(CC)c2ccc(OCCCCCCCCCCCC)cc2)cc1 shows Fold Activation below 0.6
Output line: Not met

Input line: Record: CCC(=C(CC)c1ccc(O)c(C=C(C)C)c1)c1ccc(O)cc1
Output line: Not met

Input line: Next molecule up: CCC(=C(CC)c1ccc(O)c(C(C)(C)C)c1)c1ccc(O)cc1
Output line: Met

Input line: Another molecule to look at: C=CCOc1ccc(C(CC)=C(CC)c2ccc(O)c(CC=C)c2)cc1
Output line: Met

Input line: Likewise for CCC(=C(CC)c1ccc(Oc2cccc(C=O)c2)cc1)c1ccc(O)cc1 ?
Output line: Not met

----------
tested on: ERRγ (GAL-ERRg); assay: MH100x4 luciferase reporter with GAL-ERRg; assay type: cell-based; conditions: Table 3; dose 2.5 (unit not given); None 2.2
Reported Reporter Activity values follow for various molecules
API doc: respond with a numeric literal and nothing else, no unit.

Input line: What does the data say about its Reporter Activity? Entry: CN(C)CCOc1ccc(/C(=C(/CCCl)c2ccccc2)c2ccc(O)cc2)cc1 [DY33]
Output line: 0.58

Input line: Continue with Oc1ccc(C(=C(CCCl)c2ccccc2)c2ccc(O)cc2)cc1 [DY30]
Output line: 1.5

Input line: Repeat for the following molecule: Oc1ccc(C(=C(CCCCl)c2ccccc2)c2ccc(O)cc2)cc1 [DY31]
Output line: 1.16

Input line: How about CCC(=C(c1ccc(OC2CCCCO2)cc1)c1ccc(OC2CCCCO2)cc1)c1ccccc1 (stereo not shown) [DY26] ?
Output line: 2.17

Input line: Now give it for CC/C(=C(/c1ccc(OCCN(C)C)cc1)c1ccc(OC(C)=O)cc1)c1ccccc1 [DY28] too.
Output line: 0.25

Input line: Queued: CC(C)C(=C(c1ccc(O)cc1)c1ccc(O)cc1)c1ccccc1 [DY34]
Output line: 1.35

Input line: Next molecule: CC(C)/C(=C(\c1ccc(O)cc1)c1ccc(OCN(C)C)cc1)c1ccccc1 [DY35]
Output line: 0.34

The reported measurements were obtained from patent US8119695B2.
